# testedTarget: BTK-1h (Homo sapiens, UniProt Q06187)
# Construct: The BTK kinase domain was diluted to 2 μM in the buffer, and 2 μM 1h was added; made in house
# Sequence (Q06187 402-655): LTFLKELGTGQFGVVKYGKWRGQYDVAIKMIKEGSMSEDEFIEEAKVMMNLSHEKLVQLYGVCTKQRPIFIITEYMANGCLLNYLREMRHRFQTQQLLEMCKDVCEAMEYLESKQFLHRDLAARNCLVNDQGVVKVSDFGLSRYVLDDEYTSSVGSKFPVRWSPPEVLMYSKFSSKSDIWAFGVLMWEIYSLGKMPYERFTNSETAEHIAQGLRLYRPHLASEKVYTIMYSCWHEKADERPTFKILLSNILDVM
# assayProtocol: High-throughput screening with 1h-labeled BTK
# Type: binding
# studyConditions: Dataset S2A; 200 μM compound, BTK-1h, 32 °C, 10 min
Each record's class is read off its FI (650)/FI (620) using these ranges: class A (below 1), class B (1 to below 2), class C (2 or more)

O=C(/C=C/c1ccc(O)c(O)c1)c1ccc(O)cc1O [PCM-0095622-002]; class B
CN(C)C/C=C/C(=O)Nc1ccc(C(=O)Nc2cccc(Nc3ncc(Cl)c(-c4c[nH]c5ccccc45)n3)c2)cc1 [PCM-0213464-002, THZ1 2HCl]; class C
Nc1cccc(-c2cc3c(Oc4cccc(O)c4)ncnc3[nH]2)c1 [PCM-0095147-003]; class B

### Prompt Tag the class for C[C@@H](Oc1ccc2[nH]nc(/C=C/c3cnn(CCO)c3)c2c1)c1c(Cl)cncc1Cl [PCM-0215376-001]
### Response class B

### Prompt Tag the class for CN(C)C/C=C/C(=O)Nc1cc2c(Nc3ccc(F)c(Cl)c3)ncnc2cc1O[C@H]1CCOC1 [PCM-0094907-003]
### Response class A

### Prompt Tag the class for COCCOC(=O)C1=C(C)NC(C)=C(C(=O)OC/C=C/c2ccccc2)C1c1cccc([N+](=O)[O-])c1 (centres unmarked) [PCM-0065102-001]
### Response class A

### Prompt Tag the class for Cl.N/C(=N\N=C\c1ccc(Cl)cc1)N/N=C/c1ccc(Cl)cc1 [PCM-0215125-001]
### Response class B

### Prompt Tag the class for O=C(N/N=C/c1cc(O)c(O)cc1O)c1cc2ccccc2cc1O [PCM-0215496-001, Dyngo-4a]
### Response class C

* * *

# testedTarget: BTK-1h (Homo sapiens, UniProt Q06187)
# Construct: The BTK kinase domain was diluted to 2 μM in the buffer, and 2 μM 1h was added; made in house
# assayProtocol: High-throughput screening with 1h-labeled BTK
# Assay type: binding
# studyConditions: Dataset S2A; 200 μM compound, BTK-1h, 32 °C, 10 min
parameter: FI (BTK-1h)/FI (BTK-1h+Inhibitor) at 620 nm
# print the numeric value only

Field: example entries. Status: answers known.
NC(=O)c1cnc2[nH]ccc2c1NC1[C@@H]2CC3C[C@H]1CC(O)(C3)C2 (stereo partly shown); 1.086
CC#CC(=O)N1CC[C@@H](n2c(=O)n(-c3ccc(Oc4ccccc4)cc3)c3c(N)ncnc32)C1; 2.544
O=C(c1ccc(Nc2nccc(-c3cc4ccccc4s3)n2)cc1)N1CCC(N2CCCC2)CC1; 1.715

### Prompt May I ask what FI (BTK-1h)/FI (BTK-1h+Inhibitor) at 620 nm has been recorded for Cc1cc(C)nc(NS(=O)(=O)c2ccc(NC(=S)NC(=O)COc3ccc(Br)cc3Cl)cc2)n1 ?
### Response 1.024

### Prompt May I ask what FI (BTK-1h)/FI (BTK-1h+Inhibitor) at 620 nm has been recorded for CCCCCCCCCCCCc1ccc(S(=O)(=O)Nc2nncs2)cc1 ?
### Response 1.042

### Prompt May I ask what FI (BTK-1h)/FI (BTK-1h+Inhibitor) at 620 nm has been recorded for CCCCCCCCCCCCCCCC(=O)O[C@@H]1[C@@H](O)[C@@H](O)[C@@H]([C@H](NC(=O)[C@@H]2C[C@@H](CCC)CN2C)[C@H](C)Cl)O[C@@H]1SC.Cl ?
### Response 0.9902

### Prompt May I ask what FI (BTK-1h)/FI (BTK-1h+Inhibitor) at 620 nm has been recorded for COCCCc1sc(-c2ccccc2)nc1C(=O)Nc1ccccc1-c1nc2cc(CN3CCCC3)cnc2s1.Cl ?
### Response 1.029

* * *

# Lookup of reported FI (BTK-1h)/FI (BTK-1h+Inhibitor) at 620 nm keyed by entry
# testedTarget: BTK-1h (Homo sapiens, UniProt Q06187)
# Construct: The BTK kinase domain was diluted to 2 μM in the buffer, and 2 μM 1h was added; made in house
# assayProtocol: High-throughput screening with 1h-labeled BTK
# Format: binding
# studyConditions: Dataset S2A; 200 μM compound, BTK-1h, 32 °C, 10 min

Field: example entries. Status: answers known.
CCc1cccc(CC)c1NC(=O)N1Cc2[nH]nc(NC(=O)c3ccc(N4CCN(C)CC4)cc3)c2C1; 1.096
Cc1ccc(NS(=O)(=O)c2ccc3c(c2)C2C=CCC2C(c2ccc(C(=O)O)cc2)N3)cc1C (stereo not shown); 0.9739
OC1CCC(Oc2cccc3cnc(Nc4ccc5nc[nH]c5c4)nc23)CC1 (stereo not shown); 1.0276

### Prompt Form field: FI (BTK-1h)/FI (BTK-1h+Inhibitor) at 620 nm recorded for Cn1cc(-c2[nH]c3cc(NC(=O)[C@H](N)C4CCCCC4)cc4c3c2C=NNC4=O)cn1 with BTK-1h (Homo sapiens, UniProt Q06187) (enter value)
### Response 1.441

### Prompt Form field: FI (BTK-1h)/FI (BTK-1h+Inhibitor) at 620 nm recorded for COc1nc2ccc(Br)cc2cc1[C@@H](c1ccccc1)[C@@](O)(CCN(C)C)c1cccc2ccccc12.O=C(O)/C=C/C(=O)O with BTK-1h (Homo sapiens, UniProt Q06187) (enter value)
### Response 1.067

### Prompt Form field: FI (BTK-1h)/FI (BTK-1h+Inhibitor) at 620 nm recorded for C[C@@H]1O[C@@H](O[C@H]2[C@H](O[C@H]3CC[C@@]4(C)[C@@H](CC[C@]5(C)[C@@H]4CC=C4[C@@H]6CC(C)(C)CC[C@]6(C(=O)O)CC[C@]45C)[C@]3(C)CO)OC[C@H](O[C@@H]3O[C@H](CO)[C@@H](O)[C@H](O)[C@H]3O)[C@@H]2O)[C@H](O)[C@H](O)[C@H]1O with BTK-1h (Homo sapiens, UniProt Q06187) (enter value)
### Response 1.048

### Prompt Form field: FI (BTK-1h)/FI (BTK-1h+Inhibitor) at 620 nm recorded for COc1cc(C[C@H](C)[C@H](C)Cc2ccc3c(c2)OCO3)ccc1O with BTK-1h (Homo sapiens, UniProt Q06187) (enter value)
### Response 1.025

### Prompt Form field: FI (BTK-1h)/FI (BTK-1h+Inhibitor) at 620 nm recorded for CN(CC(=O)N(Cc1ccc(C2CCCCC2)cc1)c1ccc(C(=O)O)cc1)S(=O)(=O)c1c(F)c(F)c(F)c(F)c1F with BTK-1h (Homo sapiens, UniProt Q06187) (enter value)
### Response 1.04

### Prompt Form field: FI (BTK-1h)/FI (BTK-1h+Inhibitor) at 620 nm recorded for Cc1cc(Nc2cc(CN3CCOCC3)c3nc(C)c(Cc4ccc(Cl)cc4F)n3n2)n[nH]1 with BTK-1h (Homo sapiens, UniProt Q06187) (enter value)
### Response 1.045

### Prompt Form field: FI (BTK-1h)/FI (BTK-1h+Inhibitor) at 620 nm recorded for COC(=O)C1=C(C)NC(C)=C(C(=O)OCCN2CCN(C(c3ccccc3)c3ccccc3)CC2)C1c1cccc([N+](=O)[O-])c1.Cl.Cl (stereo not shown) with BTK-1h (Homo sapiens, UniProt Q06187) (enter value)
### Response 1.072

### Prompt Form field: FI (BTK-1h)/FI (BTK-1h+Inhibitor) at 620 nm recorded for COc1cc2c(Nc3ccc(NC(=O)c4ccccc4)cc3)ncnc2cc1OCCCN1CCOCC1 with BTK-1h (Homo sapiens, UniProt Q06187) (enter value)
### Response 1.079

### Prompt Form field: FI (BTK-1h)/FI (BTK-1h+Inhibitor) at 620 nm recorded for O=C(O)C1(Cc2cccc(Nc3nccs3)n2)CCC(Oc2cccc(Cl)c2F)CC1 (stereo not shown) with BTK-1h (Homo sapiens, UniProt Q06187) (enter value)
### Response 1.347

### Prompt Form field: FI (BTK-1h)/FI (BTK-1h+Inhibitor) at 620 nm recorded for CNC(=O)c1cc(Oc2ccc(NC(=O)Nc3cc(C(C)(C)C)nn3-c3ccc4ncccc4c3)c(F)c2)ccn1 with BTK-1h (Homo sapiens, UniProt Q06187) (enter value)
### Response 1.374

* * *

# Lookup of reported FI (650)/FI (620) keyed by entry
# testedTarget: BTK-1h (Homo sapiens)
# Construct: The BTK kinase domain was diluted to 2 μM in the buffer, and 2 μM 1h was added; made in house
# assayProtocol: High-throughput screening with 1h-labeled BTK
# Assay type: binding
# studyConditions: Dataset S2A; 200 μM compound, BTK-1h, 32 °C, 10 min
# Procedure: The collection was composed of BTK binding compounds obtained in our previous luminescence screen[37] (Data set S2). […] The resulting BTK-1h (50 μL) was added to the inhibitors.
# print the numeric value only

Field: example entries. Status: answers known.
COC(=O)N[C@H](C(=O)N1CC2(CC2)C[C@H]1c1ncc(-c2ccc3c(c2)C(F)(F)c2cc(-c4ccc5nc([C@@H]6[C@H]7CC[C@H](C7)N6C(=O)[C@@H](NC(=O)OC)C(C)C)[nH]c5c4)ccc2-3)[nH]1)C(C)C [PCM-0215396-001]; 0.8983
COC1=CC(=O)c2ccccc2C1=O [PCM-0214886-001]; 0.9979
O=C(Nc1c[nH]nc1-c1nc2ccc(CN3CCOCC3)cc2[nH]1)NC1CC1 [PCM-0094942-002, AT9283]; 2.2858

Next compound, please.
### Prompt May I ask what FI (650)/FI (620) has been recorded for O=C(NCCCNc1nc(Nc2cccc(NC(=O)N3CCCC3)c2)ncc1I)c1cccs1 [PCM-0095061-002] ?
### Response 1.86
